biological target: M3 (Homo sapiens); experiment: In vitro functional assay of muscarinic acetylcholine receptor activity, M3; details: antagonist activity; M3 method not separately described
Sequence (P20309 whole entry): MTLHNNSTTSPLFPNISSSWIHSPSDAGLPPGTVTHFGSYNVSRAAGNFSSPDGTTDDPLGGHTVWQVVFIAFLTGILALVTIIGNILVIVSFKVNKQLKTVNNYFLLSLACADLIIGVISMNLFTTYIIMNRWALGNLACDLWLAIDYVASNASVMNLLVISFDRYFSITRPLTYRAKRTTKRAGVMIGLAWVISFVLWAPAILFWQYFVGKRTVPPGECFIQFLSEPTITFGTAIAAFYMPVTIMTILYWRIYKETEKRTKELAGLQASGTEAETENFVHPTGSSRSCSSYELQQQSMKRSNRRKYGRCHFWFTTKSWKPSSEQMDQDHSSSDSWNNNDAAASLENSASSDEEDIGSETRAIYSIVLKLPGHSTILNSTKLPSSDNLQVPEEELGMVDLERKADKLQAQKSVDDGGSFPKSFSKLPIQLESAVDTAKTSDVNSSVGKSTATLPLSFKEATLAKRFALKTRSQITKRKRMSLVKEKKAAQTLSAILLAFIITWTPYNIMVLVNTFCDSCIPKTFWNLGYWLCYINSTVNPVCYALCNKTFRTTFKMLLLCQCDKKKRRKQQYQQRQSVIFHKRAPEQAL
pIC50: −log10 of the molar value.
Listed below: pIC50 values for each entry.

A selection of reference data follows.
1) N#Cc1cc(N2CCN3C(=O)[C@@H](CCCc4cccc5ncnn45)C[C@H]3C2)ccc1F
5.00 to 6.00
2) O=C1[C@@H](CCCc2cccn3nccc23)C[C@H]2CN(c3ccc(F)cn3)CCN12
5.00 to 6.00
3) O=C1[C@@H](CCCc2c(F)ccn3ncnc23)C[C@H]2CN(c3ccc(F)cn3)CCN12
5.00 to 6.00

Q: Query the reported pIC50 for M3 (Homo sapiens); item: COc1ccc(N2CCN3C(=O)[C@@H](CCCc4cccc5ncnn45)C[C@H]3C2)cn1
Ans: < 5.00

Q: What would you report for Cc1nccnc1CCC[C@H]1C[C@H]2CN(c3ccc(C#N)cn3)CCN2C1=O ?
Ans: < 5.00

* * *

Target: human M1 receptor (Homo sapiens)
Sequence (P11229 whole entry): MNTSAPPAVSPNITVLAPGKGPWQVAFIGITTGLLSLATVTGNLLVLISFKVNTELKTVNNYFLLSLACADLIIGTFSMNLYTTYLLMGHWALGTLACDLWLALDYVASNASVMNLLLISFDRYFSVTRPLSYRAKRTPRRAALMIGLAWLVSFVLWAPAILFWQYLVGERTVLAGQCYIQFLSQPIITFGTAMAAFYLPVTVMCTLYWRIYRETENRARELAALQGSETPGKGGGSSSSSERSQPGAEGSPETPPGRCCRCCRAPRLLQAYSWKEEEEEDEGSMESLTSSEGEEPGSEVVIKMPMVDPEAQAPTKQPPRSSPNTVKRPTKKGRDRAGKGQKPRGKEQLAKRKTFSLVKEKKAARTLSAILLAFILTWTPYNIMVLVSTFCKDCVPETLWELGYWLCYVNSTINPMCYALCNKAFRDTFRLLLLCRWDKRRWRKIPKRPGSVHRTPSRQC
Experiment: In vitro functional assay of muscarinic acetylcholine receptor activity (aequorin calcium flux, antagonist mode vs EC80 acetylcholine), M1
Settings: CHO-K1 cells stably expressing human M1 receptor with Aequorin; decrease in EC80 acetylcholine response
Protocol: CHO-K1 cells stably expressing human M1 receptor with Aequorin (Perkin Elmer) were grown in F12 media, 10% FBS with 0.4 mg/mL geneticin and […]. Cells were grown to confluence and frozen down to be assayed at a later date. […] Calcium flux was measured using the FlexStation 3 (Molecular Devices). […] Antagonist activity was analyzed as a concentration dependent decrease in the EC80 acetylcholine response. […] The IC50 of the compounds was calculated from the dose response curve.
pIC50: −log10 of the molar value.
Attribute Measured: pIC50

A selection of reference data follows.
1. Cc1cnc(N2CCN3C(=O)[C@@H](CCCc4cccn5ncnc45)C[C@H]3C2)nc1 [Example 65]
6.00 to 7.00
2. N#Cc1ccc(N2CCN3C(=O)[C@@H](CCCc4cccc5ncnn45)C[C@H]3C2)nc1 [Example 4]
> 7.00
3. O=C1[C@H](CCCc2cccc3ncsc23)C[C@H]2CN(c3ccncc3F)CCN12 [Example 1]
< 5.00
4. N#Cc1ccc(N2CCN3C(=O)[C@@H](CCCc4cccc5ncsc45)C[C@H]3C2)nc1 [Example 10]
> 7.00

Q: Query the reported pIC50 for human M1 receptor (Homo sapiens); item: O=C1C(CCCc2cccc3ncsc23)C[C@H]2CN(c3ccncc3F)CCN12 (mixture of isomers) [Example 9]
Ans: 6.00 to 7.00

Q: What would you report for O=C1[C@@H](CCCc2cccn3ncnc23)C[C@H]2CN(c3ncccn3)CCN12 [Example 66] ?
Ans: 6.00 to 7.00

Q: What would you report for N#Cc1ccc(N2CCN3C(=O)[C@@H](CCCc4cccc5c4CCO5)C[C@H]3C2)nc1 [Example 19] ?
Ans: > 7.00

Q: What would you report for O=C1[C@@H](CCCc2cccn3nccc23)C[C@H]2CN(c3ncc(F)cn3)CCN12 [Example 88] ?
Ans: > 7.00

Q: What would you report for O=C1[C@@H](CCCc2cccc3ncnn23)C[C@H]2CN(c3ncc(F)cn3)CCN12 [Example 35] ?
Ans: > 7.00

Q: What would you report for O=C1[C@@H](CCCc2cccc3nccnc23)C[C@H]2CN(c3ccc(F)cn3)CCN12 [Example 93] ?
Ans: > 7.00

Q: What would you report for O=C1[C@@H](CCCc2cccc3ncnn23)C[C@H]2CN(c3ccc(C(F)(F)F)cn3)CCN12 [Example 32] ?
Ans: > 7.00

Q: What would you report for O=C1[C@@H](CCCc2cccn3ncnc23)C[C@H]2CN(c3ccc(F)cc3F)CCN12 [Example 71] ?
Ans: 5.00 to 6.00
